Collected pIC50 values appear next to each entry.
Biological target: Neutral cholesterol ester hydrolase 1 (Homo sapiens)
Sequence (Q6PIU2 whole entry): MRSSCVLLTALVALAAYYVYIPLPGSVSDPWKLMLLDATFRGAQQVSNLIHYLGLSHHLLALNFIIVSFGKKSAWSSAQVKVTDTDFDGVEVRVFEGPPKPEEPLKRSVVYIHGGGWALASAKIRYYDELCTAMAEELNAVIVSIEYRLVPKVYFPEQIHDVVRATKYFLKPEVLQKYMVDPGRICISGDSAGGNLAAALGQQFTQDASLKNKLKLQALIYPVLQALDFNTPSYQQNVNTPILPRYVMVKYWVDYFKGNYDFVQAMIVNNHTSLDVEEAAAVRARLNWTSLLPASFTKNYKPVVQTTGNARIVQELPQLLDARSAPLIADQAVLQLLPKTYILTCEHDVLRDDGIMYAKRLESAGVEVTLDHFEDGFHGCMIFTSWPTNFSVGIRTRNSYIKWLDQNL
Test: Inhibition of human KIAA1363 expressed in 293T/17 cells using 2-thioacetyl MAGE as substrate preincubated for 20 mins measured after 1 hr
pIC50: −log10 of the molar value.

>>> observedresult("CN(C)C(=O)Oc1ccc2ccccc2c1 [NAPHTHALEN-2-YL DIMETHYLCARBAMATE]")
"< 4.00"

Prompt: Find the measured pIC50: item CN(C)C(=O)Oc1ccc2ccccc2c1Cl , target or system Neutral cholesterol ester hydrolase 1 (Homo sapiens).
Completion: 5.96

Prompt: Record CN(C)C(=O)Oc1ccccc1Br : what is its pIC50 with Neutral cholesterol ester hydrolase 1 (Homo sapiens)?
Completion: < 4.00

Prompt: Please provide the recorded pIC50 for CN(C)C(=O)Oc1ccc2ccccc2c1C#N , tested on Neutral cholesterol ester hydrolase 1 (Homo sapiens).
Completion: < 4.00
